Target: recombinant rat MASP2 active protease (amino acids 296-685, C-terminal His Tag) (rat, UniProt Q9JJS8 296-685)
Sequence (Q9JJS8 other isoform, or with tags, fused parts or gaps limits assumed): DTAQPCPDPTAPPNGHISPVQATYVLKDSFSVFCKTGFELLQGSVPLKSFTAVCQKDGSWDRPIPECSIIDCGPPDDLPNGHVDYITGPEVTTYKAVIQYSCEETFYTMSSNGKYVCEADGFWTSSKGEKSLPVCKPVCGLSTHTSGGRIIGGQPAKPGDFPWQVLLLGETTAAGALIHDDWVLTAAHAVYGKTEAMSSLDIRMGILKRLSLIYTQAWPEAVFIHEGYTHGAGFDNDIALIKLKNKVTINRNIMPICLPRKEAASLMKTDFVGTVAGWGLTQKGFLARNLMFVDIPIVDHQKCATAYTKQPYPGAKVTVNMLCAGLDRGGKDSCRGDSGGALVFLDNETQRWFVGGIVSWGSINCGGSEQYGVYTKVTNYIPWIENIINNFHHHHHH
Test: cell-based or functional assay
Bridge positions count the residues as written; N and C are the ends. Square brackets hold non-standard residues; d marks the D form. Ends that are not written are not given here. Oic = O=C(O)[C@@H]1C[C@@H]2CCCC[C@@H]2N1

{"binder": "AICSRSLP[Oic]ICIPD-OH (disulfide 3-11; N-terminus assumed; SMILES CC[C@H](C)[C@H](NC(=O)[C@H](C)N)C(=O)N[C@H]1CSSC[C@@H](C(=O)N[C@H](C(=O)N2CCC[C@H]2C(=O)N[C@@H](CC(=O)O)C(=O)O)[C@@H](C)CC)NC(=O)[C@H]([C@@H](C)CC)NC(=O)[C@@H]2C[C@@H]3CCCC[C@@H]3N2C(=O)[C@@H]2CCCN2C(=O)[C@H](CC(C)C)NC(=O)[C@H](CO)NC(=O)[C@H](CCCNC(=N)N)NC(=O)[C@H](CO)NC1=O) [Example 153: AIC+SRSLP-(Oic)-IC+IPD-OH]", "uom": "µM", "rat MASP2 IC50": 0.0503}

Data credit: patent US20210246166A1
